Kindly state pIC50 for each of the entries shown.
- system-name: IDO1 (Homo sapiens, UniProt P14902)
- Sequence (P14902 whole entry): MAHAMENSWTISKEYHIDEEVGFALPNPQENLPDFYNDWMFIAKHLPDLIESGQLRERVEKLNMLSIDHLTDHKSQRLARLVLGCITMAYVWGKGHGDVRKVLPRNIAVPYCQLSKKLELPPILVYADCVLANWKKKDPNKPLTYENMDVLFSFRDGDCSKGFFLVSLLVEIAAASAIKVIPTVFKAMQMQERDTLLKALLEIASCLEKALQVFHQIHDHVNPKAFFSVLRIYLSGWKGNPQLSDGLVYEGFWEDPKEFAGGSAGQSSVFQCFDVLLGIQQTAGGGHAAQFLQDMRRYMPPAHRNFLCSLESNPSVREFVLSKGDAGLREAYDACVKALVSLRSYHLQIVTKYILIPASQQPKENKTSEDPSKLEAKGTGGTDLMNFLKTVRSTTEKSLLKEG
- protocol-text: IDO1 cellular assay in Hela cells stimulated with IFNγ
- Type: cell-based
- test-context: IFNγ 100 ng/mL, 300 uM L-tryptophan, about 48 hours, fluorescence readout
One number for each entry, as −log10 of the molar value.

O=C(Nc1ccc(C2(C(=O)Nc3ccc(F)cc3)CCC2)cn1)N1CCCC1    6.84
O=C(NC1(c2ccc(NC(=O)c3ncco3)cn2)CCC1)c1ccc(Cl)nc1    6.04
O=C(CCC1CC1)Nc1ccc(C2(C(=O)Nc3ccc(F)cc3)CCC2)cn1    7.54

Moving on to the next molecule.
Notebook: "O=C(Nc1ccc(C2(C(=O)Nc3ccc(F)cc3)CCC2)nc1CO)c1cccc(Cl)c1" , pIC50 read as 8.70

Every entry's value here was drawn from patent US11111232B2.
